assay: Cmax was evaluated in male Dawley rats at a dose of 46.8 mg/kg when taken perorally; format: ADME, organism-based; parameters: dose 46.8 mg/kg, route oral; settings: Sprague-Dawley, rat, in vivo, po
readout.label: Cmax
Please state the number and follow it with the unit.

Prompt: Entry CC(=O)NC[C@H]1CN(c2ccc(-n3cc(C#N)cn3)c(F)c2)C(=O)O1 has what Cmax?
Response: 29.4 µM

###

tested on: Haemophilus influenzae; assay: The compound was evaluated for its anti-bacterial activity against Haemophilus influenzae UC 30063; type: functional
readout.label: MIC (mg/L)
Field: numeric (mg/L). Do not append units.

These solved cases illustrate the format of a correct answer.
| smiles.representation | MIC [mg/L] |
| --- | --- |
| CC(=O)NC[C@H]1CN(c2ccc(-n3cc(C#N)cn3)c(F)c2)C(=O)O1 | 4 |
| CC(=O)NC[C@H]1CN(c2ccc(-n3ccc(C=O)c3)c(F)c2)C(=O)O1 | 2 |
| CC(=O)NC[C@H]1CN(c2ccc(-n3ccc(C#N)c3)c(F)c2)C(=O)O1 | 4 |
| CC(=O)NC[C@H]1CN(c2ccc(-n3ccc(/C=N\O)c3)c(F)c2)C(=O)O1 | 4 |
| CC(=O)NC[C@H]1CN(c2ccc(N3CCOCC3)c(F)c2)C(=O)O1 | 16 |

We next turn to a different compound, shown below.
Prompt: Entry CC(=O)NC[C@H]1CN(c2ccc(N3CCN(C(=O)CO)CC3)c(F)c2)C(=O)O1 has what MIC?
Response: 16

###

assay: terminal disposition half-life was evaluated in male Dawley rats at a dose of 42.9 mg/kg when taken peroral; type: ADME, organism-based; set-up: dose 42.9 mg/kg, route oral; settings: Sprague-Dawley, rat, in vivo, po
readout.label: half-life (min)
Field: numeric (min). Do not append units.

Prompt: Entry CC(=O)NC[C@H]1CN(c2ccc(-n3ccc(C#N)c3)c(F)c2)C(=O)O1 has what half-life?
Response: 308

###

test: tmax was evaluated in male Dawley rats at a dose of 46.8 mg/kg when taken perorally; assay type: ADME, organism-based; parameters: dose 46.8 mg/kg, route oral; conditions: Sprague-Dawley, rat, in vivo, po
readout.label: Tmax (h)
Field: numeric (h). Do not append units.

Prompt: Entry CC(=O)NC[C@H]1CN(c2ccc(-n3cc(C#N)cn3)c(F)c2)C(=O)O1 has what Tmax?
Response: 4

###

experiment: Cmax was evaluated in male Dawley rats at a dose of 25 mg/kg when taken perorally; format: ADME, organism-based; design: dose 25 mg/kg, route oral; settings: Sprague-Dawley, rat, in vivo, po
readout.label: Cmax (µM)
Field: numeric (µM). Do not append units.

Prompt: Entry CC(=O)NC[C@H]1CN(c2ccc(N3CCOCC3)c(F)c2)C(=O)O1 has what Cmax?
Response: 15.8

###

experiment: Absolute oral bioavailability was evaluated n male Dawley rats at a dose of 46.8 mg/kg when taken peroral; assay type: ADME, organism-based; settings: Sprague-Dawley, rat, in vivo
readout.label: bioavailability (%)
Field: numeric (%). Do not append units.

Prompt: Entry CC(=O)NC[C@H]1CN(c2ccc(-n3cc(C#N)cn3)c(F)c2)C(=O)O1 has what bioavailability?
Response: 80

###

assay: Cmax was evaluated in male Dawley rats at a dose of 9.0 mg/kg when taken intravenously; format: ADME, organism-based; parameters: dose 9 mg/kg, route intravenous; details: Sprague-Dawley, rat, in vivo, iv
readout.label: Cmax
Please state the number and follow it with the unit.

Prompt: Entry CC(=O)NC[C@H]1CN(c2ccc(-n3cc(C#N)cn3)c(F)c2)C(=O)O1 has what Cmax?
Response: 29.2 µM

// provenance: ChEMBL document CHEMBL1131429
